Test System: Glutamate carboxypeptidase 2 (Homo sapiens, UniProt Q04609)
Sequence (Q04609 whole entry, looked up): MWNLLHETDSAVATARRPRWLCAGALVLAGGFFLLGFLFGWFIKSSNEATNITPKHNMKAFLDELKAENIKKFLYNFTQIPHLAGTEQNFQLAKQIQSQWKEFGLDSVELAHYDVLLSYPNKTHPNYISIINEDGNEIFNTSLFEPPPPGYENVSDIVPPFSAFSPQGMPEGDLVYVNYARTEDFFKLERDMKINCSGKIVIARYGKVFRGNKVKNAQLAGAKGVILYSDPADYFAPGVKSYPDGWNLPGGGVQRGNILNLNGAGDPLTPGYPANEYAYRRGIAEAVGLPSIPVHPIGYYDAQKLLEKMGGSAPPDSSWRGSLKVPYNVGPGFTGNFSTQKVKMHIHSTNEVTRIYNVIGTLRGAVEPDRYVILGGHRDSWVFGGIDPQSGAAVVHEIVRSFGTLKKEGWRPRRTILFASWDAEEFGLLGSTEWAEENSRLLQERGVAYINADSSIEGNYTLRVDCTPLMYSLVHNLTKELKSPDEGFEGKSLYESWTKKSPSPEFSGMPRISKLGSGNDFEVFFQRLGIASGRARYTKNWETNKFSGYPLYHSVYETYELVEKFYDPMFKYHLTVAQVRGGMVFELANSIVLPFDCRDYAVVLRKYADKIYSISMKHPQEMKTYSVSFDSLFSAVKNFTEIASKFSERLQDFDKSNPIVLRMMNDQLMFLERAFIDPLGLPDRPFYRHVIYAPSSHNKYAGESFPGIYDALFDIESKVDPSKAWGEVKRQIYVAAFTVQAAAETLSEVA
Assay Text: Displacement of [177Lu]LU-PSMA-617 from PSMA in human salivary gland assessed as residual activity at 10 uM incubated for 1 hr by autoradiography analysis relative to control
Assay type: tissue-based
Measured Endpoint: Activity

INSERT INTO results (sample_smiles, measured_endpoint, recorded_value) VALUES
  ('CCCCCCNC(=S)Nc1ccc2c(c1)C(=O)OC21c2ccc(O)cc2Oc2cc(O)ccc21', 'Activity', '92%'),
  ('O=C(N[C@@H]1C[C@@H](C(=O)N[C@@H](CNC(=S)Nc2ccc3c(c2)C(=O)OC32c3ccc(O)cc3Oc3cc(O)ccc32)C(=O)O)N(C(=O)c2c[nH]nn2)C1)c1c[nH]nn1', 'Activity', '14%'),
  ('O=C(N[C@@H]1C[C@@H](C(=O)N[C@@H](CCCCNC(=S)Nc2ccc3c(c2)C(=O)OC32c3ccc(O)cc3Oc3cc(O)ccc32)C(=O)O)N(C(=O)c2cnoc2C2CC2)C1)c1c[nH]nn1', 'Activity', '39%'),
  ('O=C(N[C@@H]1C[C@@H](C(=O)N[C@@H](CNC(=S)Nc2ccc3c(c2)C(=O)OC32c3ccc(O)cc3Oc3cc(O)ccc32)C(=O)O)N(C(=O)c2cnoc2C2CC2)C1)c1c[nH]nn1', 'Activity', '44%');

----------
Test System: Prolyl endopeptidase FAP (Homo sapiens, UniProt Q12884)
Sequence (Q12884 whole entry): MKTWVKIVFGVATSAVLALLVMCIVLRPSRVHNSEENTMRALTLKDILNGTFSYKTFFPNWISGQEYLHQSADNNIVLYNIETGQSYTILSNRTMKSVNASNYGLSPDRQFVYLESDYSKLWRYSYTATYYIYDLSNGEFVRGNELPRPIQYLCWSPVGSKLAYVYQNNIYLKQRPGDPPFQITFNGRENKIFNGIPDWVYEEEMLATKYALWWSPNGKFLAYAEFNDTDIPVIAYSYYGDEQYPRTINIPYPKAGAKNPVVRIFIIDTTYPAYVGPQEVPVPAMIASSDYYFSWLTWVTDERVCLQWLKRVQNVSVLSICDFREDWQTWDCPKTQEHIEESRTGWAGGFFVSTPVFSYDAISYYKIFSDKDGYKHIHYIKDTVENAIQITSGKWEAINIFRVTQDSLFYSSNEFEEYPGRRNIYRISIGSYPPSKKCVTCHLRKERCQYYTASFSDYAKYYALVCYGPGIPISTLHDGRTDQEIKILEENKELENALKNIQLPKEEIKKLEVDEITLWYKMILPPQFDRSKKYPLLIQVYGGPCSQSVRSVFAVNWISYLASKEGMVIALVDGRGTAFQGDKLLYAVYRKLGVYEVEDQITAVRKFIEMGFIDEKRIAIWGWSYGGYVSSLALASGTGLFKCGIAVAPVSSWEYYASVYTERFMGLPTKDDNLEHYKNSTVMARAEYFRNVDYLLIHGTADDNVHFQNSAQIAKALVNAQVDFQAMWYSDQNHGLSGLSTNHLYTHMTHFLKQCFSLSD
pKd: −log10 of the molar value.
Measured Endpoint: pKd

INSERT INTO measurements (sample_smiles, measured_endpoint, recorded_value) VALUES
  ('O=C(N[C@@H]1C[C@@H](C(=O)N[C@@H](CCCCNC(=S)Nc2ccc3c(c2)C(=O)OC32c3ccc(O)cc3Oc3cc(O)ccc32)C(=O)O)N(C(=O)c2cnoc2C2CC2)C1)c1c[nH]nn1', 'pKd', '< 5.82');
